Test system: PBMCs from LTBI donors (IFN-γ production)
Format: cell-based, human
Conditions: fraction of 28 LTBI donors responding to epitopes of the antigen, ex vivo IFN-γ ELISPOT
reported-metric: Resp. freq.

I'm hoping you can list Resp. freq. for every molecule here, please.
1. Rv2490c: MTB protein, novel CD4 T cell antigen; PE/PPE (protein, listed as Mycobacterium tuberculosis) MQSMSFDPAVADIGSQVVNNAFQGLQAGAVAWVSLSSLLPAGAEEVSAWAVTAFTTAATGLLALNQAAQEELRKAGEVFTAIARMYSDADVRAAACLLEAIPRPGQTLARE
2. Rv3012c: MTB protein, novel CD4 T cell antigen; Information pathways (protein, listed as Mycobacterium tuberculosis) MSQISRDEVAHLARLARLALTETELDSFAGQLDAILTHVSQIQAVDVTGVQATDNPLKDVNVTRPDETVPCLTQRQVLDQAPDAVDGRFAVPQILGDEQ
3. Rv0298: MTB protein, novel CD4 T cell antigen; Conserved hypotheticals (protein, listed as Mycobacterium tuberculosis) MTKEKISVTVDAAVLAAIDADARAAGLNRSEMIEQALRNEHLRVALRDYTAKTVPALDIDAYAQRVYQANRAAGS
4. Rv1172c: MTB protein, novel CD4 T cell antigen; PE/PPE (protein, listed as Mycobacterium tuberculosis) MSFVFAAPEALAAAAADMAGIGSTLNAANVVAAVPTTGVLAAAADEVSTQVAALLSAHAQGYQQLSRQMMTAFHDQFVQALRASADAYATAEASAAQTMVNAVNAPARALLGHPLISADASTGGGSNALSRVQSMFLGTGGSSALGGSAAANAAASGALQLQPTGGASGLSAVGALLPRAGAAAAAALPALAAESIGNAIKNLYNAVEPWVQYGFNLTAWAVGWLPYIGILAPQINFFYYLGEPIVQAVLFNAIDFVDGTVTFSQALTNIETATAASINQFINTEINWIRGFLPPLPPISPPGFPSLP

1. 11%
2. 14%
3. 11%
4. 11%

Need Resp. freq. for each of these molecules.
1. Rv1788: MTB protein, novel CD4 T cell antigen; PE/PPE (protein, listed as Mycobacterium tuberculosis) MSFVTTQPEALAAAAGSLQGIGSALNAQNAAAATPTTGVVPAAADEVSALTAAQFAAHAQIYQAVSAQAAAIHEMFVNTLQMSSGSYAATEAANAAAAG
2. Rv0985c: MTB protein, novel CD4 T cell antigen; Cell wall and cell processes (protein, listed as Mycobacterium tuberculosis) MLKGFKEFLARGNIVDLAVAVVIGTAFTALVTKFTDSIITPLINRIGVNAQSDVGILRIGIGGGQTIDLNVLLSAAINFFLIAFAVYFLVVLPYNTLRKKGEVEQPGDTQVVLLTEIRDLLAQTNGDSPGRHGGRGTPSPTDGPRASTESQ

1: 25%; 2: 11%
